# MIC measurements, system: A. niger (ATCC 9029)

{"columns": ["COMPOUND", "MIC"],
 "data": [
  ["COc1cc(C2CC(c3ccc(Cl)cc3)=Nc3c(N)nc(N)nc3N2)ccc1Oc1nc(Nc2ccc(F)cc2)nc(N(C)C)n1 (stereo not shown) [29e]", "> 250 µg/mL"],
  ["CN(C)c1nc(NCCNS(=O)(=O)c2ccc(C(=O)/C=C/c3ccc(Cl)cc3)cc2)nc(N2CCOCC2)n1 [23e]", "> 250 µg/mL"],
  ["C[C@@H]1[C@H](O)[C@@H](C)/C=C/C=C/C=C/C=C/C=C/C=C/C=C/[C@H](O[C@@H]2O[C@H](C)[C@@H](O)[C@H](N)[C@@H]2O)C[C@@H]2O[C@](O)(C[C@@H](O)C[C@@H](O)[C@H](O)CC[C@@H](O)C[C@@H](O)CC(=O)O[C@H]1C)C[C@H](O)[C@H]2C(=O)O [Amphotericin B, reference compound]", "0.5 µg/mL"],
  ["COc1cc(C2CC(c3ccc(F)cc3)=Nc3c(N)nc(N)nc3N2)ccc1Oc1nc(Nc2ccc(F)cc2)nc(N(C)C)n1 (stereo not shown) [29f]", "> 250 µg/mL"],
  ["CN(C)c1nc(NCCNS(=O)(=O)c2ccc(C(=O)/C=C/c3ccc(Cl)cc3)cc2)nc(Nc2ccc(F)cc2)n1 [24e]", "> 250 µg/mL"],
  ["CN(C)c1nc(NCCNS(=O)(=O)c2ccc(C3=Nc4c(N)nc(N)nc4NC(c4ccc(C(F)(F)F)cc4)C3)cc2)nc(N2CCOCC2)n1 (stereo not shown) [30g]", "> 250 µg/mL"],
  ["COc1ccc(/C=C/C(=O)c2ccc(S(=O)(=O)NCCNc3nc(Nc4ccc(F)cc4)nc(N(C)C)n3)cc2)cc1 [24c]", "> 250 µg/mL"],
  ["COc1cc(C2CC(c3ccc(S(=O)(=O)NCCNc4nc(N(C)C)nc(N5CCOCC5)n4)cc3)=Nc3c(N)nc(N)nc3N2)cc(OC)c1OC (stereo not shown) [30d]", "> 250 µg/mL"],
  ["COc1cc(/C=C/C(=O)c2cc(OC)c(OC)c(OC)c2)ccc1Oc1nc(Nc2ccc(F)cc2)nc(N(C)C)n1 [21d]", "125 µg/mL"],
  ["CN(C)c1nc(NCCNS(=O)(=O)c2ccc(C3=Nc4c(N)nc(N)nc4NC(c4ccc(C(F)(F)F)cc4)C3)cc2)nc(Nc2ccc(F)cc2)n1 (stereo not shown) [31g]", "> 250 µg/mL"],
  ["COc1ccc(C2=Nc3c(N)nc(N)nc3NC(c3ccc(Oc4nc(Nc5ccc(F)cc5)nc(N(C)C)n4)c(OC)c3)C2)cc1 (stereo not shown) [29c]", "> 250 µg/mL"],
  ["COc1cc(C2CC(c3ccc(C(F)(F)F)cc3)=Nc3c(N)nc(N)nc3N2)ccc1Oc1nc(Nc2ccc(F)cc2)nc(N(C)C)n1 (stereo not shown) [29g]", "> 250 µg/mL"],
  ["CC(=O)c1ccc(S(=O)(=O)NCCNc2nc(N(C)C)nc(N3CCOCC3)n2)cc1", "> 250 µg/mL"]
]}
